B1: N-terminal 3×-FLAG-tagged p52 (WT) [human] / p34 [human (endogenous in HEK293T)] (parent complex)
chain 1: MESTPSRGLNRVHLQCRNLQEFLGGLSPGVLDRLYGHPATCLAVFRELPSLAKNWVMRMLFLEQPLPQAAVALWVKKEFSKAQEESTGLLSGLRIWHTQLLPGGLQGLILNPIFRQNLRIALLGGGKAWSDDTSQLGPDKHARDVPSLDKYAEERWEVVLHFMVGSPSAAVSQDLAQLLSQAGLMKSTEPGEPPCITSAGFQFLLLDTPAQLWYFMLQYLQTAQSRGMDLVEILSFLFQLSFSTLGKDYSVEGMSDSLLNFLQHLREFGLVFQRKRKSRRYYPTRLAINLSSGVSGAGGTVHQPGFIVVETNYRLYAYTESELQIALIALFSEMLYRFPNMVVAQVTRESVQQAIASGITAQQIIHFLRTRAHPVMLKQTPVLPPTITDQIRLWELERDRLRFTEGVLYNQFLSQVDFELLLAHARELGVLVFENSAKRLMVVTPAGHSDVKRFWKRQKHSS
chain 2: MVSDEDELNLLVIVVDANPIWWGKQALKESQFTLSKCIDAVMVLGNSHLFMNRSNKLAVIASHIQESRFLYPGKNGRLGDFFGDPGNPPEFNPSGSKDGKYELLTSANEVIVEEIKDLMTKSDIKGQHTETLLAGSLAKALCYIHRMNKEVKDNQEMKSRILVIKAAEDSALQYMNFMNVIFAAQKQNILIDACVLDSDSGLLQQACDITGGLYLKVPQMPSLLQYLLWVFLPDQDQRSQLILPPPVHVDYRAACFCHRNLIEIGYVCSVCLSIFCNFSPICTTCETAFKISLPPVLKAKKKKLKVSA

# Variants of: B1
# test-method-notes: FLAG-IP LC–MS (iBAQ); HEK293T nuclear extracts; n = 3, biological replicates; read off a plot
readout-kind: response

Would you kindly share the measured response for chain 1 E310F ?
~0.64 Normalized Log2 iBAQ

Now consider chain 1 Y316A, chain 1 Y318A and answer again.
~0.67 Normalized Log2 iBAQ

Now consider chain 1 R337A, chain 1 F338A and answer again.
~0.73 Normalized Log2 iBAQ

Now consider chain 1 E310A, chain 1 R314A and answer again.
~0.67 Normalized Log2 iBAQ
